Data origin, for the record: the supplement of paper PMC13380429

test system: Vero E6; test: cell viability relative to DMSO; higher = less toxic; conditions: 72 h; 100 nM
READOUT_LABEL: cell viability (%)
Give the value in % but do not write % after it.

Data request, read-out cell viability, for O=[N+]([O-])c1c(Nc2cc(F)cc(Cl)c2)ccc2nonc12 [TC-S-7009] 96.4

Ok, now CN(C)c1ccc(C(=C2C=CC(=[N+](C)C)C=C2)c2ccc(N(C)C)cc2)cc1 [crystal-violet] 100

Param item: COc1ccc2[nH]c(SCc3ncc(C)c(OC)c3C)nc2c1 [omeprazole-sulfide] 87.8

Field entry: COc1cc2ncnc(Nc3ccc(F)c(Cl)c3)c2cc1NC(=O)/C=C/CN1CCCCC1 [dacomitinib] 59.5

###

system: U2OS; assay: cell viability relative to DMSO; higher = less toxic; conditions: 72 h; 1 nM
Catalogue of cell viability readings, one per entry.

Solved entries (count: 9):
Cn1c(NC[C@@H](N)Cc2ccccc2)nc(-c2ccncc2)c(-c2ccc3ccccc3c2)c1=O = 101%
Cc1cc(C)c(CNC(=O)c2cc(-c3ccc(CN4CCOCC4)cc3)cc3c2cnn3C2CCCC2)c(=O)[nH]1 = 99%
Cc1ccccc1C(=O)Nc1ccc(C(=O)N2CCCC(N(C)C)c3ccccc32)cc1 (stereo not given) = 98.1%
Cc1nc2ccc(-n3ncc(C(=O)c4cc5ccccc5[nH]4)c3N)cc2[nH]1 = 99%
CCC(CC)Nc1cc(C)nc(Oc2c(C)cc(C)cc2C)c1C = 104%
COc1ccc2[nH]c(SCc3ncc(C)c(OC)c3C)nc2c1 [omeprazole-sulfide] = 96.8%
Cc1cc(C)c(N)c(C#Cc2cccc(F)c2)n1 = 102%
COc1ccccc1CN[C@H]1CCCN[C@H]1c1ccccc1 = 99%
COc1ccc2c(c1)c(CC(=O)N1CCOCC1)c(C)n2C(=O)c1ccc(Cl)cc1 = 96.2%

Now take the following compound into account.
Sample CC(C(=O)O)c1ccc(C(=O)c2cccs2)cc1 (stereo not given) — what was its cell viability? 101%

###

test system: HepG2; test: cell viability relative to DMSO; higher = less toxic; conditions: 72 h; 1 nM
READOUT_LABEL: cell viability (%)
Give the quantity in %, number only.

Record excerpt, results attached:
Cc1ccc2c(c1)=C(c1ccccc1)C(C1=NN(C(=O)CCC(=O)O)C(c3ccc(Br)cc3)C1)C(=O)N=2 (stereo not given) = 106
c1ccc(COCCCc2c[nH]cn2)cc1 = 97.9
O=c1[nH]cnc2c([C@@H]3N[C@H](CO)[C@@H](O)[C@H]3O)c[nH]c12 = 106
Cc1ccc(-c2ccc(C)cn2)nc1 = 119

Next molecule, please.
Fill in: cell viability of CCOC(=O)[N-]c1c[n+](N2CCOCC2)no1 is ___ 87.6

###

test system: Calu-3; assay: cell viability relative to DMSO; higher = less toxic; settings: 72 h; 10000 nM
# maps each entry to its cell viability
# output: bare number, implied unit %

Requested read-out: cell viability. Entry: CC(C)(N)c1nc(-c2ccc(OC(F)(F)F)cc2)c[nH]1 113

Also CCc1c(O)cc(O)c(C(=O)c2ccc(OCCN3CCOCC3)c(OC)c2)c1CC(=O)N(CCOC)CCOC , if possible. 53.4

// next record C=CCNC1=C2C[C@@H](C)C[C@H](OC)[C@H](O)[C@@H](C)/C=C(\C)[C@H](OC(N)=O)[C@@H](OC)/C=C\C=C(/C)C(=O)NC(=CC1=O)C2=O 38.2

Now consider Nc1ccc2cc3ccc(N)cc3nc2c1 [proflavine-hemisulfate] and answer again. 62.6
